- Assay system: Urotensin-2 receptor (Rattus norvegicus) (UniProt P49684)
- Sequence (P49684 whole entry): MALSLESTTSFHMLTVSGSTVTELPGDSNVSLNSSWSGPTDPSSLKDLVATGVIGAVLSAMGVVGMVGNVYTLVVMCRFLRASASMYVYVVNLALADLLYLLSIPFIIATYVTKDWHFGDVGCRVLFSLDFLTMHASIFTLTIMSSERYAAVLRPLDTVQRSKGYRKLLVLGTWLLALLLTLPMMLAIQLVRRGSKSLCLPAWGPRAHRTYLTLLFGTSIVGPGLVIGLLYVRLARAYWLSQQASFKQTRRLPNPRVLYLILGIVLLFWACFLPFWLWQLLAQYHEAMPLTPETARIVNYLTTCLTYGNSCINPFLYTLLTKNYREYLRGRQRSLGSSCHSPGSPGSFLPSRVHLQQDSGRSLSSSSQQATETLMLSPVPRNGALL
- Assay method text: Agonist activity at UT receptor in rat aorta assessed as contraction relative to urotensin-2
- Type: tissue-based
Peptide text beside a SMILES is read from it.
Please use fulfilled whenever Emax is not below 90%, and not fulfilled whenever it is.

CC(C)[C@H](NC(=O)[C@@H]1CSSC(C)(C)[C@@H](NC(=O)[C@@H](N)CC(=O)O)C(=O)N[C@@H](Cc2ccccc2)C(=O)N[C@H](Cc2c[nH]c3ccccc23)C(=O)N[C@@H](CCCN)C(=O)N[C@@H](Cc2ccc(O)cc2)C(=O)N1)C(=O)O (HELM PEPTIDE1{D.[CC(C)(S[*:3])[C@@H](N[*:1])C(=O)[*:2]].F.[dW].[Orn].Y.C.V}$PEPTIDE1,PEPTIDE1,2:R3-7:R3$$$V2.0): not fulfilled
CC(C)[C@H](NC(=O)[C@@H]1CSSC(C)(C)[C@H](NC(=O)[C@@H](N)CC(=O)O)C(=O)N[C@@H](Cc2ccccc2)C(=O)N[C@H](Cc2c[nH]c3ccccc23)C(=O)N[C@@H](CCCN)C(=O)N[C@@H](Cc2ccc(Cl)c(Cl)c2)C(=O)N1)C(=O)O: not fulfilled
CC(C)[C@H](NC(=O)[C@@H]1CSSC[C@H](NC(=O)[C@@H](N)CC(=O)O)C(=O)N[C@@H](Cc2ccccc2)C(=O)N[C@@H](Cc2c[nH]c3ccccc23)C(=O)N[C@@H](CCCCN)C(=O)N[C@@H](Cc2ccc(O)cc2)C(=O)N1)C(=O)O (HELM PEPTIDE1{D.C.F.W.K.Y.C.V}$PEPTIDE1,PEPTIDE1,2:R3-7:R3$$$V2.0): fulfilled
CC(C)[C@H](NC(=O)[C@@H]1CSSC(C)(C)[C@H](NC(=O)[C@@H](N)CC(=O)O)C(=O)N[C@@H](Cc2ccccc2)C(=O)N[C@@H](Cc2c[nH]c3ccccc23)C(=O)N[C@@H](CCCCN)C(=O)N[C@@H](Cc2ccc(O)cc2)C(=O)N1)C(=O)O (HELM PEPTIDE1{D.[Pen].F.W.K.Y.C.V}$PEPTIDE1,PEPTIDE1,2:R3-7:R3$$$V2.0): fulfilled
CC(C)[C@H](NC(=O)[C@@H]1CSSC(C)(C)[C@H](NC(=O)[C@@H](N)CC(=O)O)C(=O)N[C@@H](Cc2ccccc2)C(=O)N[C@@H](Cc2c[nH]c3ccccc23)C(=O)N[C@@H](CCCCN)C(=O)N[C@@H](Cc2ccc3ccccc3c2)C(=O)N1)C(=O)O (HELM PEPTIDE1{D.[Pen].F.W.K.[O=C([C@H](Cc1ccc2ccccc2c1)N[*:1])[*:2]].C.V}$PEPTIDE1,PEPTIDE1,2:R3-7:R3$$$V2.0): not fulfilled
CC(C)[C@H](NC(=O)[C@@H]1CSSC(C)(C)[C@H](NC(=O)[C@@H](N)CC(=O)O)C(=O)N[C@@H](Cc2ccccc2)C(=O)N[C@@H](Cc2c[nH]c3ccccc23)C(=O)N[C@@H](CCCCN)C(=O)N[C@@H](Cc2cccc3ccccc23)C(=O)N1)C(=O)O (HELM PEPTIDE1{D.[Pen].F.W.K.[O=C([C@H](Cc1cccc2ccccc12)N[*:1])[*:2]].C.V}$PEPTIDE1,PEPTIDE1,2:R3-7:R3$$$V2.0): not fulfilled
CC(C)[C@H](NC(=O)[C@@H]1CSSC[C@H](NC(=O)[C@H](CC(=O)O)NC(=O)[C@@H]2CCCN2C(=O)[C@@H](NC(=O)[C@@H](N)CCC(=O)O)[C@@H](C)O)C(=O)N[C@@H](Cc2ccccc2)C(=O)N[C@@H](Cc2c[nH]c3ccccc23)C(=O)N[C@@H](CCCCN)C(=O)N[C@@H](Cc2ccc(O)cc2)C(=O)N1)C(=O)O: fulfilled
CC(C)[C@H](NC(=O)[C@@H]1CSSC(C)(C)[C@H](NC(=O)[C@@H](N)CC(=O)O)C(=O)N[C@@H](Cc2ccccc2)C(=O)N[C@H](Cc2c[nH]c3ccccc23)C(=O)N[C@@H](CCCN)C(=O)N[C@@H](Cc2ccc(C#N)cc2)C(=O)N1)C(=O)O: not fulfilled
CC(C)[C@H](NC(=O)[C@@H]1CSSC(C)(C)[C@H](NC(=O)[C@@H](N)CC(=O)O)C(=O)N[C@@H](Cc2ccccc2)C(=O)N[C@@H](Cc2c[nH]c3ccccc23)C(=O)N[C@@H](CCCCN)C(=O)N[C@@H](Cc2ccc(Cl)cc2)C(=O)N1)C(=O)O (HELM PEPTIDE1{D.[Pen].F.W.K.[O=C([C@H](Cc1ccc(Cl)cc1)N[*:1])[*:2]].C.V}$PEPTIDE1,PEPTIDE1,2:R3-7:R3$$$V2.0): not fulfilled
CC(C)[C@H](NC(=O)[C@@H]1CSSC(C)(C)[C@H](NC(=O)[C@@H](N)CC(=O)O)C(=O)N[C@@H](Cc2ccccc2)C(=O)N[C@@H](Cc2c[nH]c3ccccc23)C(=O)N[C@@H](CCCCN)C(=O)N[C@@H](Cc2ccc(Cl)c(Cl)c2)C(=O)N1)C(=O)O (HELM PEPTIDE1{D.[Pen].F.W.K.[O=C([C@H](Cc1ccc(Cl)c(Cl)c1)N[*:1])[*:2]].C.V}$PEPTIDE1,PEPTIDE1,2:R3-7:R3$$$V2.0): fulfilled

###

- Assay method text: Stability in 25% fetal calf serum assessed as parent compound remaining at 80 uM at 37 degC after 16 hrs by RP-HPLC-UV based detection assay
- Format: ADME, Bos taurus
- Assay conditions: cattle, read-out: Stability
Peptide text beside a SMILES is read from it.
Quick reference: remaining at 16 h, 80 µM of the listed items.
Recorded endpoint: remaining at 16 h, 80 µM

CC(C)[C@H](NC(=O)[C@@H]1CSSC[C@H](NC(=O)[C@@H](N)CC(=O)O)C(=O)N[C@@H](Cc2ccccc2)C(=O)N[C@@H](Cc2c[nH]c3ccccc23)C(=O)N[C@@H](CCCCN)C(=O)N[C@@H](Cc2ccc(O)cc2)C(=O)N1)C(=O)O (HELM PEPTIDE1{D.C.F.W.K.Y.C.V}$PEPTIDE1,PEPTIDE1,2:R3-7:R3$$$V2.0): < 50%
CC(C)[C@H](NC(=O)[C@@H]1CSSC(C)(C)[C@H](NC(=O)[C@@H](N)CC(=O)O)C(=O)N[C@@H](Cc2ccccc2)C(=O)N[C@@H](Cc2c[nH]c3ccccc23)C(=O)N[C@@H](CCCCN)C(=O)N[C@@H](Cc2ccc(Cl)c(Cl)c2)C(=O)N1)C(=O)O (HELM PEPTIDE1{D.[Pen].F.W.K.[O=C([C@H](Cc1ccc(Cl)c(Cl)c1)N[*:1])[*:2]].C.V}$PEPTIDE1,PEPTIDE1,2:R3-7:R3$$$V2.0): > 70%
CC(C)[C@H](NC(=O)[C@@H]1CSSC(C)(C)[C@H](NC(=O)[C@@H](N)CC(=O)O)C(=O)N[C@@H](Cc2ccccc2)C(=O)N[C@H](Cc2c[nH]c3ccccc23)C(=O)N[C@@H](CCCN)C(=O)N[C@@H](Cc2ccc(C#N)cc2)C(=O)N1)C(=O)O: > 70%
CC(C)[C@H](NC(=O)[C@@H]1CSSC(C)(C)[C@H](NC(=O)[C@@H](N)CC(=O)O)C(=O)N[C@@H](Cc2ccccc2)C(=O)N[C@@H](Cc2c[nH]c3ccccc23)C(=O)N[C@@H](CCCCN)C(=O)N[C@@H](Cc2ccc(O)cc2)C(=O)N1)C(=O)O (HELM PEPTIDE1{D.[Pen].F.W.K.Y.C.V}$PEPTIDE1,PEPTIDE1,2:R3-7:R3$$$V2.0): 65%

###

- Assay system: Urotensin-2 receptor (Homo sapiens, UniProt Q9UKP6)
- Sequence (Q9UKP6 whole entry): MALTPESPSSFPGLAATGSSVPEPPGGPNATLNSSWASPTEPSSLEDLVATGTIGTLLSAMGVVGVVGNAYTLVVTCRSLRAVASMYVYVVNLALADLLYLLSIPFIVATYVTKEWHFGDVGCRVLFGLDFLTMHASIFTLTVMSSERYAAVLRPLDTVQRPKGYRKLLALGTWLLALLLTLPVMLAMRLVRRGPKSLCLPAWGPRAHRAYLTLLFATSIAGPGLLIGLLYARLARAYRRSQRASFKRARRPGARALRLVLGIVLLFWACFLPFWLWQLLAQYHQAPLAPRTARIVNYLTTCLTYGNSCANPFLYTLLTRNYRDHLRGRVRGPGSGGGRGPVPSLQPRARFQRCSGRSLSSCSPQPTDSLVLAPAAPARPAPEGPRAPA
- Assay method text: Displacement of [125I]urotensin-2 from human recombinant UT receptor expressed in CHO-K1 cells by scintillation counting method
Peptide text beside a SMILES is read from it.
Entries and their Ki
Recorded endpoint: Ki (nM)

CC(C)[C@H](NC(=O)[C@@H]1CSSC(C)(C)[C@H](NC(=O)[C@@H](N)CC(=O)O)C(=O)N[C@@H](Cc2ccccc2)C(=O)N[C@H](Cc2c[nH]c3ccccc23)C(=O)N[C@@H](CCCN)C(=O)N[C@@H](Cc2ccc(C#N)cc2)C(=O)N1)C(=O)O: 12
CC(C)[C@H](NC(=O)[C@@H]1CSSC(C)(C)[C@H](NC(=O)[C@@H](N)CC(=O)O)C(=O)N[C@@H](Cc2ccccc2)C(=O)N[C@H](Cc2c[nH]c3ccccc23)C(=O)N[C@@H](CCCN)C(=O)N[C@@H](Cc2ccc([N+](=O)[O-])cc2)C(=O)N1)C(=O)O: 17
CC(C)[C@H](NC(=O)[C@@H]1CSSC(C)(C)[C@H](NC(=O)[C@@H](N)CC(=O)O)C(=O)N[C@@H](Cc2ccccc2)C(=O)N[C@@H](Cc2c[nH]c3ccccc23)C(=O)N[C@@H](CCCCN)C(=O)N[C@@H](Cc2ccc(Cl)c(Cl)c2)C(=O)N1)C(=O)O (HELM PEPTIDE1{D.[Pen].F.W.K.[O=C([C@H](Cc1ccc(Cl)c(Cl)c1)N[*:1])[*:2]].C.V}$PEPTIDE1,PEPTIDE1,2:R3-7:R3$$$V2.0): 0.776
CC(C)[C@H](NC(=O)[C@@H]1CSSC(C)(C)[C@H](NC(=O)[C@@H](N)CC(=O)O)C(=O)N[C@@H](Cc2ccccc2)C(=O)N[C@@H](Cc2c[nH]c3ccccc23)C(=O)N[C@@H](CCCCN)C(=O)N[C@@H](Cc2ccc(O)cc2)C(=O)N1)C(=O)O (HELM PEPTIDE1{D.[Pen].F.W.K.Y.C.V}$PEPTIDE1,PEPTIDE1,2:R3-7:R3$$$V2.0): 0.2
